Reported IC50 values are given for each entry in this list.
target: GPIIb/IIIa (Homo sapiens, UniProt P05106+P08514); construct: Purification of GPIIb/IIIa from HEL Cells; endogenous in cells; ATCC TIB180), human erythroleukemia; GPIIb/IIIa solubilized in Triton X-100, purified and adsorbed on microtiter plates; assay: Inhibition of fibrinogen binding to GPIIb/IIIa; conditions: purified GPIIb/IIIa from HEL cells, biotinylated human fibrinogen 1 nM
Sequence (P08514 32-887 limits assumed): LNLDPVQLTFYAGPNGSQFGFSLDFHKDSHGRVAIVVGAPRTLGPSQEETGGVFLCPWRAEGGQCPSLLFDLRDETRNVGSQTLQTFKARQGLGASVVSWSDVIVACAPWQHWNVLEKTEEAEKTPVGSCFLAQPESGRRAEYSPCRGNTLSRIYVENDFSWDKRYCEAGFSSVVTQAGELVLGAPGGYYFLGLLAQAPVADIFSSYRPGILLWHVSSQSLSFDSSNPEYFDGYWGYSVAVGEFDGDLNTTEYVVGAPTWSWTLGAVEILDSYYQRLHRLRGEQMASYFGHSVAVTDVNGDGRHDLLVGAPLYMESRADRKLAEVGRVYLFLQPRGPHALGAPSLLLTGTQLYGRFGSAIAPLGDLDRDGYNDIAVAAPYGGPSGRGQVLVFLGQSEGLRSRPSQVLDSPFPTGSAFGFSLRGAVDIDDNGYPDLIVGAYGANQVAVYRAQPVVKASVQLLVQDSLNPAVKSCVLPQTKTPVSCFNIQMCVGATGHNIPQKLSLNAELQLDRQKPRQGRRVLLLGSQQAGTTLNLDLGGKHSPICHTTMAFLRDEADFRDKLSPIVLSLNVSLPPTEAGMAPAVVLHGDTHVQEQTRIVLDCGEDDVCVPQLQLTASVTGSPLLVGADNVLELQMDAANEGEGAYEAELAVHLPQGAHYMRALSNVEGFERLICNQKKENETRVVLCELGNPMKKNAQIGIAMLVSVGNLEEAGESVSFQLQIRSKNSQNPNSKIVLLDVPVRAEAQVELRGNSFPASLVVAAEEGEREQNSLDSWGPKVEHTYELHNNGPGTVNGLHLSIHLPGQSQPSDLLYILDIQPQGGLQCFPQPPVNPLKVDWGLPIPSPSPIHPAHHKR
Sequence (P08514 891-1039 limits assumed): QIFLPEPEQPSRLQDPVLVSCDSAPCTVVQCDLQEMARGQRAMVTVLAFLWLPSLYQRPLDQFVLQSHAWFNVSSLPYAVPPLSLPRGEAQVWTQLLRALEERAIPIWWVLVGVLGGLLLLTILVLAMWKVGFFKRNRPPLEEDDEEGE
Sequence (P05106 27-788): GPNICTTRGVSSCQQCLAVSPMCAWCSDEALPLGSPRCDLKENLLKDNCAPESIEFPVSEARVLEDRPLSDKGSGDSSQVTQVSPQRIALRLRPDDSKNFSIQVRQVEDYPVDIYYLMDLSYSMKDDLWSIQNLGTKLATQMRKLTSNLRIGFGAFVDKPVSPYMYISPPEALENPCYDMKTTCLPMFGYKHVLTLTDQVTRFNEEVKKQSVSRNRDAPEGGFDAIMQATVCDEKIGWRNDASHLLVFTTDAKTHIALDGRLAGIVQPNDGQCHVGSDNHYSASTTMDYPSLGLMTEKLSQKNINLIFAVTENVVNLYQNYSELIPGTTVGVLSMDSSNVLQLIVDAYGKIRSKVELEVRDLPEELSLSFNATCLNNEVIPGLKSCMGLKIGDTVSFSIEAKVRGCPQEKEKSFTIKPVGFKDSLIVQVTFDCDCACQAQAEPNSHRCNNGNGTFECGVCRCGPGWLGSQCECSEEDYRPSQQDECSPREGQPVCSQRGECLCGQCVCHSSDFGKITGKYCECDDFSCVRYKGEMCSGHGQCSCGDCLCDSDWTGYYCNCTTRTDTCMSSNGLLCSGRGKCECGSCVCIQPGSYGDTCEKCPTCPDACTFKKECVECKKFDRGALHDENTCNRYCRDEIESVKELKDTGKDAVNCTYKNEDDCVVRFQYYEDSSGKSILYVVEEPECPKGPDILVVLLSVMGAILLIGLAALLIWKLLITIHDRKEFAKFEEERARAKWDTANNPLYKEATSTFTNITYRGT
Measured parameter: IC50 (µM)

smiles_input=CN(C)CCc1ccc(C(=O)NCC(=O)N2CCN(CC(=O)O)C(=O)[C@@H]2CCC(N)=O)cc1 measured_parameter=IC50 reported=0.032
smiles_input=COC(=O)CN1CCN(C(=O)CNC(=O)c2ccc(C(=N)N)cc2)[C@@H](CC(=O)O)C1=O measured_parameter=IC50 reported=0.02
smiles_input=C[C@@H](C(=O)O)N1CCN(C(=O)CNC(=O)c2ccc(C(=N)N)cc2)[C@@H](CC(=O)O)C1=O measured_parameter=IC50 reported=0.019
smiles_input=N=C(N)NCc1cccc(C(=O)NCC(=O)N2CCN(CC(=O)O)C(=O)[C@@H]2CC(=O)O)c1 measured_parameter=IC50 reported=0.073
smiles_input=N=C(N)NC[C@H]1CC[C@H](C(=O)NCC(=O)N2CCN(CC(=O)O)C(=O)[C@@H]2CCC(=O)O)CC1 measured_parameter=IC50 reported=0.015
smiles_input=COC(=O)C[C@H]1C(=O)N(CC(=O)O)CCN1C(=O)CNC(=O)c1ccc(CCN)cc1 measured_parameter=IC50 reported=0.00091
smiles_input=NCCc1ccc(C(=O)NCC(=O)N2CCN(CC(=O)O)C(=O)[C@@H]2CC(N)=O)cc1 measured_parameter=IC50 reported=0.0023

* * *

Reported IC50 values are given for each entry in this list.
molecular target: GPIIb/IIIa (Homo sapiens, UniProt P05106+P08514); construct: Purification of GPIIb/IIIa from HEL Cells; endogenous in cells; ATCC TIB180), human erythroleukemia; GPIIb/IIIa solubilized in Triton X-100, purified and adsorbed on microtiter plates; test: Inhibition of fibrinogen binding to GPIIb/IIIa; conditions: purified GPIIb/IIIa from HEL cells, biotinylated human fibrinogen 1 nM
Measured parameter: IC50

molecule="N=C(N)c1ccc(C(=O)NCC(=O)N2CCN(CC(=O)O)C(=O)[C@@H]2CC(=O)O)cc1 [compound 39]" measured_parameter=IC50 reported="1 nM"
molecule="N=C(N)Nc1ccc(C(=O)NCC(=O)N2CCN(CC(=O)O)C(=O)[C@@H]2CC(=O)O)cc1 [compound 10]" measured_parameter=IC50 reported="4.8 nM"
molecule="N=C(N)NCCCCC(=O)NCC(=O)N1CCN(CC(=O)O)C(=O)[C@@H]1CC(=O)O [compound 6]" measured_parameter=IC50 reported="46 nM"
molecule="NCCc1ccc(C(=O)NCC(=O)N2CCN(CC(=O)O)C(=O)[C@@H]2CC(=O)O)cc1 [compound 46]" measured_parameter=IC50 reported="2.5 nM"
molecule="N=C(N)c1ccc(C(=O)NCC(=O)N2CCN(CC(=O)O)C(=O)[C@@H]2CCC(=O)O)cc1 [compound 66]" measured_parameter=IC50 reported="0.2 nM"
molecule="NCCc1ccc(C(=O)NCC(=O)N2CCN(CC(=O)O)C(=O)[C@@H]2CCC(N)=O)cc1 [compound 84]" measured_parameter=IC50 reported="1 nM"
molecule="N=C(N)NC[C@H]1CC[C@H](C(=O)N[C@@H](Cc2ccccc2)C(=O)N2CCN(CC(=O)O)C(=O)C2)CC1 [compound 37]" measured_parameter=IC50 reported="7.9 nM"

All figures here come from patent US5294713A.
